QUANTITY_NAME: melting point

Please review the entries below; each comes with its answer.
Nc1cc(C(F)(F)F)nc(C(=O)O)c1Cl; 131 to 133 °C
NC(=S)NN=Cc1ncc([N+](=O)[O-])n1Cc1ccccc1; 193 to 196 °C
COC(=O)C(Cc1ccccc1)NC(=O)C(N)(CC(=O)O)NC(=O)C(C)C (stereo not given); 168 to 170 °C

stdin: Which melting point reading was recorded for the compound O=C(NCc1ccccc1)c1ccnc(NC(=O)c2ccc(F)cc2)c1 ?
stdout: 170 to 171 °C

###

QUANTITY_NAME: melting point

stdin: Could you share which melting point value was measured for CC(C)(C)OC(=O)OC(=O)c1ccc(NNC(N)=S)cc1 ?
stdout: 161 to 163 °C

stdin: Quick one: melting point of COc1cc(OC)n2sc(=NS(=O)(=O)c3c(-c4nnn(C)n4)cnn3C)nc2n1 ?
stdout: 182 to 183 °C

stdin: Look at this compound and give its reported melting point. CSC1C(=O)Nc2c(Oc3ccccc3N)cccc21 (stereo unspecified)
stdout: 168 to 170 °C

stdin: Query (compound): CC(C#N)(CCc1ccccc1C(F)(F)F)NC(=O)c1ccc(OC(F)(F)F)cc1 (stereo unspecified) ; field requested: melting point
stdout: 87 to 89 °C

stdin: # melting point lookup, item CCOC(=O)C1CN(C)c2nc3cc(F)c(F)cc3cc2C1=O (stereo unspecified)
stdout: 188 °C

stdin: Please report the recorded melting point for Cc1nc(C(O)COc2ccc(CC3SC(=O)NC3=O)cc2)c(C)o1 (stereo unspecified) .
stdout: 223 to 224 °C

stdin: Reported melting point, compound O=C1NC(=C2CCC2)Sc2ccccc21 : ____
stdout: 147 to 149 °C

stdin: Name the reported melting point value associated with the compound C=CCN(CC=C)CC1Oc2c(cc(C)c3[nH]c(=O)ccc23)C1CF (stereo unspecified)
stdout: 68 to 71 °C

stdin: Which melting point is reported for this compound? CCCc1nc2c(C)ccc(OCc3ccccc3)c2[nH]1
stdout: 192 to 194 °C

stdin: Fill blank: measured melting point of the compound C=Cc1ccc(CSCCNC(=S)CCC(=O)O)cc1 is ____.
stdout: 97 to 99 °C

stdin: // returns reported melting point for input O=C1c2ccccc2C(O)C1Cc1ncc(C(F)(F)F)cc1Cl (stereo unspecified)
stdout: 174 to 178 °C

stdin: I'd like to know its melting point. The compound in question is CC1(C)OC(=O)C(=CSCc2cccs2)C(=O)O1
stdout: 109 to 111 °C

stdin: May I ask what melting point has been recorded for COc1ccc(-c2ccc(C(=O)Nc3cc4ncc(CN5CCCC5)cc4cc3C)cc2)cc1 ?
stdout: 194 to 198 °C

stdin: melting point lookup needed for Cc1cc(-c2cc(C(F)(F)F)n3ncc(C(=O)Nc4nc(C)c(S(=O)(=O)NC(C)(C)CO)s4)c3n2)ccc1C(F)(F)F , thanks.
stdout: 272 °C

stdin: Consider the compound COc1cc(OC)nc(NC(=O)NS(=O)(=O)c2sc(Cl)c3c2C(=O)OCC3)n1 and give its measured melting point.
stdout: 110 to 114 °C

###

Quick list: melting point per entry.

CCOC(=O)CCCNC(=O)c1nn(C2CCCCO2)cc1NC(=O)c1ccccn1 (centres undefined); 114 to 115 °C
Cc1[nH]c(=O)ccc1C(=O)c1ccc(C#N)cc1; 172 to 175 °C
CCN1CC2=C3C(=NN(c4ccc(C(C)C)cc4Br)C(=O)N3CC2)C(C)=N1; 144 to 146 °C

stdin: I'd like to know its melting point. The compound in question is NS(=O)(=O)c1cccc(-c2cc(-c3nc(-c4ccc(F)cc4)cc(C(F)(F)F)n3)ccn2)c1
stdout: 240 °C

stdin: Quick one: melting point of Cc1nc(NC(=O)Nc2ccc(N3CCN(C(=O)Nc4ccc(OCCO)cc4Cl)CC3)nc2)sc1C ?
stdout: 184 to 185 °C

stdin: Suppose we examine the compound CCN1C(=O)C(=CC=C2C=C(c3ccccc3)C=C3N2c2ccccc2C3(C)C)C(=O)N(CC)C1=S ; what melting point value has been reported?
stdout: > 310 °C

stdin: GET /values?readout=melting point&item= CSc1cc(C)cc(C)c1C=NO
stdout: 115 to 117 °C

stdin: Give its melting point value. Item: CC(C)(C)OC(=O)N1CCc2ccc(Nc3nc4c(-c5cc(C(F)(F)F)ccc5Cl)cccn4n3)cc2CC1
stdout: 88 to 89 °C

stdin: melting point lookup needed for COC(=O)COC(=O)COc1ccc(N)cc1 , thanks.
stdout: 76.5 to 78.5 °C

###

# key: entry, value: melting point

stdin: Suppose we examine the compound Cc1cccc(C2CCCN2S(=O)(=O)c2ccc(Cl)cc2)c1 (racemic) ; what melting point value has been reported?
stdout: 78 °C

stdin: For the compound shown here, Cc1cscc1NC(=S)Nc1cc(Cl)c(Cl)cc1N , give the reported melting point.
stdout: 310 to 320 °C

stdin: Please look up its melting point: O=C1N=NN=C2N=CN=C12
stdout: 230 to 234 °C

stdin: Give the measured melting point of ClCCCOc1cccc(OCCCCl)c1 .
stdout: 135 to 136 °C

stdin: I'd like to know its melting point. The compound in question is C=C(c1ccc2cc(OC)ccc2c1)C(O)C(=O)OC (stereo unspecified)
stdout: 90.6 to 92.5 °C

stdin: Could you share which melting point value was measured for COC(=O)c1ccc(O)cc1NC(=O)NS(=O)(=O)c1ccc(Cl)cc1 ?
stdout: 244 to 248 °C

stdin: Can you share its melting point? I mean this compound: CCNC(=O)C1(CCCc2ccccc2)c2ccccc2Oc2ccccc21
stdout: 130 °C

###

In this section we review reported melting point values for a set of compounds.

CNC(=O)Oc1c(C)ccc2c1CC(C)C2(C)C (stereo not given); 110 °C
CCOC(=O)C(=O)NNC(=O)c1cc2sc(C)c(N(C)S(=O)(=O)c3cccs3)c2[nH]1; 135 °C
c1cc(-c2ccoc2)cc(-n2cnc3cc(-c4ccoc4)ccc32)c1; 149 to 150 °C
COC(=O)C(Cc1ccc(OCc2nc3ccc(Oc4ccc(C56CC7CC(CC(C7)C5)C6)cc4)cc3n2C)cc1)OCc1ccc(F)cc1 (stereo not given); 118 to 120 °C
CCCc1c(OCCCCCCc2cccc(OCCCCCC(=O)O)c2CCC(=O)O)ccc2c1OCCC2=O; 86 to 88 °C
Nc1ccc(N2CCN(c3ccc(OCC(O)(Cn4cncn4)c4ccc(Cl)cc4Cl)cc3)CC2)cc1 (stereo not given); 120 °C

stdin: Which melting point reading was recorded for the compound COc1cc2c(cc1OC)CC(=O)N(CCCN(C)C1CCc3cc(Cl)c(Cl)cc3C1)CC2 (stereo not given) ?
stdout: 130 °C

stdin: What measured melting point goes with C[C@@H]1Cc2cc3c(cc2C(c2ccc([N+](=O)[O-])c(Cl)c2)=NN1)OCO3 ?
stdout: 165 to 170 °C

stdin: I am curious: what melting point value has been reported for CCc1nn2c(-c3ccc(Cl)cc3Cl)nc(C)nc2c1C(CC)CC ?
stdout: 91 to 93 °C

stdin: # query: melting point of entry COCc1cccc2c1OCCC(C(=O)OC)=C2
stdout: 76 to 78 °C

stdin: Data request, read-out melting point, for COc1c(C(C)(C)C)cc(C=C2CCON(C)C2=O)cc1C(C)(C)C
stdout: 119 to 121 °C

stdin: Look up melting point: CCCCCCCC/C(=C\C=C\C(=O)O)c1ccc(OC)cc1
stdout: 109 to 110 °C

stdin: Would you mind telling me what melting point value was observed for CCOC(=O)c1nc2cc(Br)ccn2n1 ?
stdout: 158 to 160 °C

stdin: Return reported melting point; argument: c1cc(CC2CCNC3CCCN23)ccc1CC1CCNC2CCCN12 (stereo not given)
stdout: 110 °C

stdin: Could you share which melting point value was measured for O=[N+]([O-])c1cccc(C(c2cccc([N+](=O)[O-])c2)(C(F)(F)F)C(F)(F)F)c1 ?
stdout: 118 to 119 °C

###

QUANTITY_NAME: melting point

Please review the following examples before continuing.
CC(C(N)=O)c1ccc2c(c1)CCc1ccccc1S2 (stereo not given); 135 to 136 °C
O=C(O)c1ccc2c(c1)S(=O)(=O)c1ccccc1C(=O)N2; 337 to 340 °C
CCn1c(=O)n(Cc2ccccc2)c(=O)c2c(N3CCN(C)CC3)cc(Cl)cc21; 68 to 75 °C
NC(=O)CNC(=O)c1cc(Cl)nc(Cl)c1; 211 to 213 °C
COc1cc2[nH]c(=O)c(C(=O)O)nc2cc1-n1ccc(CNC(=O)Nc2ccc(C(=O)O)cc2)c1; > 300 °C
COc1ccc(-c2c[nH]c(-c3cccnc3)n2)cc1; 184 to 186 °C
CCN(C(=O)N1CCN(c2cc(OC)cc(OC)c2)CC1)c1nc(C)c(C)nc1OC; 78 to 80 °C
c1ccc(CN2CCCC3(CC2)CC(c2ccccc2)=NO3)cc1 (stereo not given); 42 to 57 °C

stdin: Could you share which melting point value was measured for Cc1cccc(N2CCN(CCc3c(C)nc4ccccn4c3=O)CC2)c1 ?
stdout: 95.5 to 96.5 °C

stdin: Could you share which melting point value was measured for O=C(NC(=O)c1ccccc1Cl)Nc1ccc(-c2ccc(Cl)cc2)cn1 ?
stdout: 228 to 231 °C
